Tested on: L1210 leukemia ip in BDF1 mice, survival T/C
Assay: NCI In Vivo Anticancer Drug Screen. Data for tumor model L1210 Leukemia (intraperitoneal) in B6D2F1 (BDF1) mice
Settings: endpoint: mean survival time; dose: 6.25 mg/kg/injection; schedule: Q01DX009 (ip); vehicle: saline; higher = longer survival
Description: The antitumor activity of compounds was measured in mice bearing transplantable tumors. Survival or tumor size were measured and the results are expressed as the measurement made in the treated group (T) divided by the measurement made in the vehicle treated control group (C). The tumor model used in this assay is L1210 Leukemia (intraperitoneal) in B6D2F1 (BDF1) mice
Inconclusive results and toxic doses are left out.
T/C values by entry
measured metric: T/C

{"compound": "CN(C)CCCN1c2ccccc2CCc2ccccc21", "measured metric": "T/C", "observed result": "101 % of control"}
{"compound": "CNC(C)c1ccc(C)cc1 (centres undefined)", "measured metric": "T/C", "observed result": "123 % of control"}
{"compound": "COc1ncnc2c1c(C#N)cn2C1OC(CO)C(O)C1O (centres undefined)", "measured metric": "T/C", "observed result": "124 % of control"}
{"compound": "C=CC[n+]1ccccc1Cc1ccccc1", "measured metric": "T/C", "observed result": "100 % of control"}

====

System: L1210 leukemia ip in BDF1 mice, survival T/C
Experiment: NCI In Vivo Anticancer Drug Screen. Data for tumor model L1210 Leukemia (intraperitoneal) in B6D2F1 (BDF1) mice
Details: endpoint: mean survival time; dose: 200.0 mg/kg/injection; schedule: Q01DX009 (ip); vehicle: saline with Tween-80; higher = longer survival
Inconclusive results and toxic doses are left out.
Listed compounds paired with reported T/C
measured metric: T/C

{"mol smiles": "Cc1c[n+]([O-])c(C)cc1N=Nc1ccc(N(C)C)cc1", "observed result": "90 % of control"}
{"mol smiles": "CCCCCCCCCCC(=O)CC", "observed result": "104 % of control"}
{"mol smiles": "CCN(CC)C(=O)CCc1ccccc1", "observed result": "100 % of control"}

====

Test system: L1210 leukemia ip in BDF1 mice, survival T/C
Test: NCI In Vivo Anticancer Drug Screen. Data for tumor model L1210 Leukemia (intraperitoneal) in B6D2F1 (BDF1) mice
Settings: endpoint: mean survival time; dose: 50.0 mg/kg/injection; schedule: Q01DX001 (ip); vehicle: saline with Tween-80; higher = longer survival
Inconclusive results and toxic doses are left out.
measured metric: T/C

{"compound": "Nc1nc2ncc(CNc3ccc(CCC(=O)NC(CCC(=O)O)C(=O)O)cc3)nc2c(=O)[nH]1 (stereo unspecified)", "observed result": "108 % of control"}
{"compound": "N#CCN(CC#N)CCCN(CC#N)CC#N", "observed result": "102 % of control"}
{"compound": "S=c1nc[nH]c2n[nH]nc12", "observed result": "98 % of control"}
{"compound": "N#C/C(=C1/N=C(N)NC1=O)c1ccc(Cl)cc1", "observed result": "89 % of control"}
{"compound": "Nc1cc(/C=C/c2ccc(/C=C/c3ccc(S(=O)(=O)F)cc3)cc2)nc(N)n1", "observed result": "87 % of control"}
{"compound": "CCc1ccc(-n2cnc3c(=O)[nH]c(N)nc32)cc1", "observed result": "88 % of control"}
